# TARGET_OR_TEST_SYSTEM: KHK-C expressed in NRK-52E cells (Homo sapiens (Human))
# EXPERIMENT_DESCRIPTION: KHK-C Cell-based Assay (EC50), NRK CTG, fructose-mediated ATP-depletion
pEC50: −log10 of the molar value.
RECORDED_METRIC: pEC50

C[C@H]1CCN1c1nc2c(c(-c3ccc(C4(NS(C)(=O)=O)CC4)cc3)n1)CCC2: 6.35

1 = C[C@H]1CCN1c1nc2c(c(-c3ccncn3)n1)CCC2
2 = C[C@H]1CCN1c1nc2c(c(-c3ccc(C4(O)CS(=O)(=O)C4)cc3)n1)CCC2
3 = C[C@H]1[C@H](O)CN1c1nc2c(c(-c3cc4c(c(S(N)(=O)=O)c3)OCC4)n1)CCC2
Problem: Ascending by pEC50, please: list the compounds accordingly. Reply: labels, ordered per the request.
Result: 1, 3, 2

====

# TARGET_OR_TEST_SYSTEM: human KHK-C (Homo sapiens (Human), UniProt P50053)
# Sequence (P50053 whole entry): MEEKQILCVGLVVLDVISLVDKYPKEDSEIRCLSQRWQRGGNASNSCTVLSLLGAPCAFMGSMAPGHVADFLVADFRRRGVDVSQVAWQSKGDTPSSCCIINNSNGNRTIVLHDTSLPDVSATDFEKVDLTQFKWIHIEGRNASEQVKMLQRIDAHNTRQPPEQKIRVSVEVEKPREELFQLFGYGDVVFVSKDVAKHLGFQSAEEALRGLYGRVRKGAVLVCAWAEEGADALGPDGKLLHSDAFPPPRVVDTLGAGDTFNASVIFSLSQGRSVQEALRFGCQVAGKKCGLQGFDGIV
# EXPERIMENT_DESCRIPTION: KHK Biochemical Assay (IC50), ADP-Glo, KHK-C
# RUN_CONDITIONS: ADP-Glo; average of at least two separate assays
RECORDED_METRIC: IC50 (nM)

C[C@H]1CCN1c1nc2c(c(-c3ccc(-n4cccn4)cc3)n1)CCC2: 420

P = C[C@H]1[C@H](O)CN1c1nc2c(c(-c3ccc(CN)cc3)n1)CCC2
Q = C[C@H]1CCN1c1nc(-c2ccccc2)c2c(cnn2C)n1
Problem: Lowest IC50? choose P or Q Lab note: record the label of whichever item you select.
Result: P
(P: 7.7 nM, Q: 408 nM)

A = C[C@H]1[C@H](O)CN1c1nc2c(c(-c3cccc(NS(C)(=O)=O)c3)n1)CCC2
B = C[C@H]1CCN1c1nc2c(c(-c3ccc4nc(C(F)(F)F)[nH]c4c3)n1)CCC2
Problem: Lowest IC50? choose A or B Lab note: record the label of whichever item you select.
Result: A

P = COc1ccc(-c2nc(N3CC[C@@H]3C)nc3c2CCC3)cc1S(=N)(=O)c1ccc(C#N)c(Cl)c1 (stereo partly drawn)
Q = C[C@H]1CCN1c1nc2c(c(-c3ccc4c(O)nc(O)cc4c3)n1)CCC2
Problem: Hi there! Just curious which has the higher IC50 between P and Q . Lab note: record the label of whichever item you select.
Result: P
(P: 182 nM, Q: 89.7 nM)

====

# TARGET_OR_TEST_SYSTEM: human KHK-C (Homo sapiens (Human))
# EXPERIMENT_DESCRIPTION: KHK Biochemical Assay (IC50), ADP-Glo, KHK-C
# RUN_CONDITIONS: ADP-Glo; average of at least two separate assays
RECORDED_METRIC: pIC50
Convention used: pIC50 is expressed as -log10 of the molar concentration.

C[C@H]1CCN1c1nc2c(c(-c3cccc(CCC(=O)O)c3)n1)CCC2: 7.34

Alright, here's another molecule for you.
Problem: Give the value of pIC50 reported for the following: C[C@H]1CCN1c1nc2c(c(-c3ccc4c(c3)CC3C(C(=O)O)C43)n1)CCC2 (stereo partly drawn)
Result: 7.21

====

# TARGET_OR_TEST_SYSTEM: KHK-C expressed in NRK-52E cells (Homo sapiens (Human), UniProt P50053)
# Sequence (P50053 whole entry): as above
# EXPERIMENT_DESCRIPTION: KHK-C Cell-based Assay (EC50), NRK CTG, fructose-mediated ATP-depletion
RECORDED_METRIC: EC50 (nM)

C[C@H]1CCN1c1nc2c(c(-c3ccc4[nH]c(C(N)=O)cc4c3)n1)CCC2: 275

1 = C[C@H]1[C@H](O)CN1c1nc(-c2ccc3c(c2)OC[C@@H]3NS(C)(=O)=O)c2c(n1)C(F)(F)CC2
2 = C[C@H]1CCN1c1nc2c(c(-c3ccc4c(c3)C(=O)NC4=O)n1)CCC2
3 = C[C@H]1CCCN1c1nc2c(c(-c3ccc(C(N)=O)cc3)n1)CCC2
Problem: Sort the 3 compounds by EC50; largest first, smallest last. Reply: labels, ordered per the request.
Result: 2, 3, 1

====

# TARGET_OR_TEST_SYSTEM: KHK-C expressed in NRK-52E cells (Homo sapiens (Human))
# EXPERIMENT_DESCRIPTION: KHK-C Cell-based Assay (EC50), NRK CTG, fructose-mediated ATP-depletion
pEC50: −log10 of the molar value.
The reader will find reported pEC50 values listed item by item below.

C[C@H]1[C@H](CO)CN1c1nc2c(c(-c3ccc(C(N)=O)cc3)n1)CCC2 (racemic): < 5.30
C[C@H]1CCN1c1nc2c(c(-c3ccc4c(c3)C3(CCC4)CC3C(=O)O)n1)CCC2 (stereo partly drawn): 6.19

Problem: Give the value of pEC50 reported for the following: "C[C@]1(O)CCN(c2nc3c(c(-c4ccc(C(N)=O)cc4)n2)CCC3)C1"
Result: < 5.30
